Molecular target: Norepinephrine (NE) uptake (Rattus norvegicus, UniProt Q9WTR4)
Test: Norepinephrine (NE) uptake inhibitory activity using rat brain synaptosome (hippocampus)
Assay type: biochemical
Details: tritium-labeled NE 12 nM, 37° C. ten minutes, read-out: 50% inhibitory concentration
Parameter IC50: see the listing below.
Number first, unit second: that is the form wanted.

> print(dat)
                                   compound                               test.target  parameter.measured  result
1  CC1(C)CN(c2ccc3[nH]c(C#N)cc3c2)[C@@H]2CCCC[C@H]2N1  Norepinephrine (NE) uptake (Rattus norvegicus, UniProt Q9WTR4)                IC50  8.7 nM
2  CC1(C)CN(c2ccc3sccc3c2)[C@H]2CCCC[C@@H]2N1  Norepinephrine (NE) uptake (Rattus norvegicus, UniProt Q9WTR4)                IC50  3.8 nM
3  CC1(C)CN(c2ccc(F)c3occc23)[C@@H]2CCCC[C@@H]2N1  Norepinephrine (NE) uptake (Rattus norvegicus, UniProt Q9WTR4)                IC50  3.9 nM
4  CC1(C)CN(c2ccc(Cl)c3occc23)[C@H]2CCCC[C@@H]2N1  Norepinephrine (NE) uptake (Rattus norvegicus, UniProt Q9WTR4)                IC50  4.4 nM
5  CC1(C)CN(c2ccc(OC(F)F)c(Cl)c2)[C@@H]2CCCC[C@H]2N1  Norepinephrine (NE) uptake (Rattus norvegicus, UniProt Q9WTR4)                IC50  4.2 nM

Entry under test: C[C@@H]1CN(c2cccc3ccsc23)[C@@H]2CCCC[C@@H]2N1 (relative stereo) . Its IC50 was 1.7 nM

The measured values listed here are drawn from patent US11273168B2.
